# ASSAY NOTES: The opioid receptor affinity(Ki) was evaluated by competition with [3H]-DPDPE (delta 1) on guinea pig brain membranes
RECORDED METRIC: pKi
FYI, pKi means -log10 of a concentration in mol per litre.

// solved cases for pKi follow
INSERT INTO results (compound, reported_measurement) VALUES
  ('N=C(N)NCCC[C@@H](NC(=O)c1cccc2c3c([nH]c12)[C@@H]1Oc2c(O)ccc4c2C12CCN(CC1CC1)C(C4)[C@]2(O)C3)C(=O)O (stereo partly specified)', 9.80),
  ('O=C(O)C[C@@H](NC(=O)c1cccc2c3c([nH]c12)[C@@H]1Oc2c(O)ccc4c2C12CCN(CC1CC1)C(C4)[C@]2(O)C3)C(=O)O (stereo partly specified)', 9.85),
  ('O=C(O)CNC(=O)c1cccc2c3c([nH]c12)[C@@H]1Oc2c(O)ccc4c2C12CCN(CC1CC1)C(C4)[C@]2(O)C3 (stereo partly specified)', 11.30),
  ('O=C(O)c1cccc2c3c([nH]c12)[C@@H]1Oc2c(O)ccc4c2C12CCN(CC1CC1)C(C4)[C@]2(O)C3 (stereo partly specified)', 10.89),
  ('NCCCC[C@@H](NC(=O)c1cccc2c3c([nH]c12)[C@@H]1Oc2c(O)ccc4c2C12CCN(CC1CC1)C(C4)[C@]2(O)C3)C(=O)O (stereo partly specified)', 9.52);

Now turn to the next compound.
Incoming: Dear colleague, please send me the reported pKi for NCCC[C@@H](NC(=O)c1cccc2c3c([nH]c12)[C@@H]1Oc2c(O)ccc4c2C12CCN(CC1CC1)C(C4)[C@]2(O)C3)C(=O)O (stereo partly specified) when you can.
Outgoing: 9.74

* * *

# ASSAY NOTES: The opioid receptor affinity(Ki) was evaluated by competition with [3H]DSLET (delta 2) on guinea pig brain membranes
Parameter log10 Ki: see the listing below.
Could you please treat all values as log10 of Ki in nM?

// solved cases for log10 Ki follow
INSERT INTO measurements (compound, reported_measurement) VALUES
  ('N=C(N)NCCC[C@@H](NC(=O)c1cccc2c3c([nH]c12)[C@@H]1Oc2c(O)ccc4c2C12CCN(CC1CC1)C(C4)[C@]2(O)C3)C(=O)O (stereo not given in full)', -1.08),
  ('O=C(O)C[C@@H](NC(=O)c1cccc2c3c([nH]c12)[C@@H]1Oc2c(O)ccc4c2C12CCN(CC1CC1)C(C4)[C@]2(O)C3)C(=O)O (stereo not given in full)', -0.39),
  ('NCCCC[C@@H](NC(=O)c1cccc2c3c([nH]c12)[C@@H]1Oc2c(O)ccc4c2C12CCN(CC1CC1)C(C4)[C@]2(O)C3)C(=O)O (stereo not given in full)', -0.12),
  ('NCCC[C@@H](NC(=O)c1cccc2c3c([nH]c12)[C@@H]1Oc2c(O)ccc4c2C12CCN(CC1CC1)C(C4)[C@]2(O)C3)C(=O)O (stereo not given in full)', -1.82);

Incoming: Dear colleague, please send me the reported log10 Ki for O=C(O)c1cccc2c3c([nH]c12)[C@@H]1Oc2c(O)ccc4c2C12CCN(CC1CC1)C(C4)[C@]2(O)C3 (stereo not given in full) when you can.
Outgoing: -1.80

The origin of these recorded values is BindingDB's records for doi:10.1021/jm00003a002.
